Tested on: H5N1 influenza A virus, whole virion (hemagglutinin presumed target) (Influenza A virus H5N1 (A/wild duck/Korea/SNU50-5/2011))
Experiment: rGO fluorescence recovery
Details: assay buffer, pH and temperature not stated ([…]
Measured Quantity: Kd (nM)
Give just the number in nM; leave the unit off.

Solved cases below.
- Chain: "GACCGTGTCAGCGGGGACTAGCGGTG [tHBA1]"
  Kd (nM): 492
- Chain: "CCGCGCGGGTCTGAGGAGTGCGCGG [tHBA2]"
  Kd (nM): 1320
- Chain: "ATGCGGATCCCGCGCGGGTCTGAGGAGTGCGCGGTGCCAGTGAGTGCGCGAAGCTTGCGC [HBA2]"
  Kd (nM): 122

Now take the following sequence into account.
Task: Could you share which Kd value was measured for ATGCGGATCCCGCGCGCGACCGTGTCAGCGGGGACTAGCGGTGTAGCGCGAAGCTTGCGC [HBA1] ?
Result: 70
